System: Candida albicans
assay.info: Antifungal activity against Candida albicans ATCC 90028 at 2 ug/ml after 18 hrs relative to control
Assay type: functional
readout.kind: Activity (%)
Reply numerically in %, unit not repeated.

Let me know recorded Activity for c1ccc(-c2nnn(CCCN3CCOCC3)n2)cc1 , thanks.
85.92

Let me know recorded Activity for CCOC(=O)CCn1nnnc1-c1ccccc1 , thanks.
90.79

Find the measured Activity of CCOC(=O)CCn1nnnc1-c1ccccc1Cl and report it.
92.75

Answer with the recorded Activity for the compound listed here: Clc1ccccc1-c1nnn(CCCN2CCOCC2)n1
92.76

Given Cc1ccc(-c2nnn(CCCN3CCOCC3)n2)cc1 , respond with its Activity.
95.72

Name the recorded Activity of the compound listed here: ClCCCn1nnc(-c2ccccc2Cl)n1
95

Tell us which Activity value is on record for ClCCCn1nnnc1-c1ccccc1Cl
97.4

Supply measured Activity of Cc1ccc(-c2nnn(CCCCl)n2)cc1 in your reply.
98.39

Provide Activity value for the following compound: CCOC(=O)CCn1nnc(-c2ccc(Cl)cc2)n1
99.74

Given the compound ClCCCn1nnc(-c2ccccc2)n1 , write its reported Activity.
99.25

Supply measured Activity of CCOC(=O)CCn1nnnc1-c1ccc(C)cc1 in your reply.
89.93

Give me measured Activity, please, for this compound: CCOC(=O)CCn1nnc(-c2ccccc2)n1
99.35

Identify the reported Activity for the following entry. ClCCCn1nnc(-c2ccc(Cl)cc2)n1
99.22

Determine its reported Activity: CCOC(=O)CCn1nnc(-c2ccc(C)cc2)n1
98.19

----------
Kindly state Activity for each of the entries shown.
System: Candida albicans
assay.info: Antifungal activity against Candida albicans ATCC 90028 at 1 ug/ml after 48 hrs relative to control
Assay type: functional
Entry rule: numbers only, all in %.

Give the reported Activity for this molecule. CCOC(=O)CCn1nnnc1-c1ccccc1Cl
99.17

Hello, please tell me recorded Activity for this one: CCOC(=O)CCn1nnc(-c2ccc(Cl)cc2)n1
98.78

Output Activity of ClCCCn1nnnc1-c1ccccc1
98.8

Determine its reported Activity: Clc1ccc(-c2nnn(CCCN3CCOCC3)n2)cc1
99.36

Specify reported Activity for the molecule shown: Cc1ccc(-c2nnn(CCCCl)n2)cc1
98.65

Answer with the recorded Activity of Clc1ccccc1-c1nnn(CCCN2CCOCC2)n1 only.
99.02

Look up Activity of ClCCCn1nnc(-c2ccc(Cl)cc2)n1 and report it.
99.1

Provide Activity value for the following molecule: ClCCCn1nnnc1-c1ccccc1Cl
98.22

Note Activity for the molecule shown: CCOC(=O)CCn1nnc(-c2ccccc2Cl)n1
98.86

Please report the measured Activity for c1ccc(-c2nnn(CCCN3CCOCC3)n2)cc1
98.87

For the molecule CCOC(=O)CCn1nnnc1-c1ccccc1 , report Activity.
98.87

Annotate the molecule ClCCCn1nnc(-c2ccccc2Cl)n1 with its measured Activity.
98.69

Entry Cc1ccc(-c2nnn(CCCN3CCOCC3)n2)cc1 needs its Activity filled in; supply it.
96.58

Quote Activity reported for CCOC(=O)CCn1nnc(-c2ccccc2)n1 please.
97.51

----------
assay.info: Toxicity in Galleria mellonella larvae assessed as survival at 0.0313 ug/ml after 96 hrs relative to control
Type: organism-based
conditions.used: in vivo
readout.kind: survival at 96 h (%)
Write it as a number; the unit % goes unstated.

Name the recorded survival at 96 h of the compound listed here: CCOC(=O)CCn1nnc(-c2ccccc2)n1
100

Fill in reported survival at 96 h for this entry: ClCCCn1nnnc1-c1ccccc1Cl
100

----------
Test system: Candida albicans
assay.info: Fungicidal activity against Candida albicans ATCC 90028 at 16 ug/ml after 48 hrs by M27-A3 microdilution method
Format: functional
I'd be grateful if you could share measured Activity for these entries.
Just so you know, I need the unit written after the number.

Please give measured Activity of the following entry: Cc1ccc(-c2nnn(CCCCl)n2)cc1
0.65 log10CFU/ml

Please give the documented Activity of c1ccc(-c2nnn(CCCN3CCOCC3)n2)cc1
-0.34 log10CFU/ml

Return the recorded Activity value; entry: Clc1ccccc1-c1nnn(CCCN2CCOCC2)n1
-0.08 log10CFU/ml

----------
Tested on: Candida albicans
assay.info: Antifungal activity against Candida albicans ATCC 90028 at 1 ug/ml after 48 hrs relative to control
Format: functional
readout.kind: Activity (%)
Value expressed in %; do not type the unit.

Note Activity for the compound shown: CCOC(=O)CCn1nnc(-c2ccc(C)cc2)n1
96.34

Dear colleague, please send me the reported Activity for ClCCCn1nnc(-c2ccccc2)n1 when you can.
97.6

Give the measured Activity for CCOC(=O)CCn1nnnc1-c1ccc(C)cc1
99.04

----------
Tested on: Candida albicans
assay.info: Antifungal activity against Candida albicans ATCC 90028 at 0.0625 ug/ml after 18 hrs relative to control
Format: functional
I'd be grateful if you could share measured Activity for these entries.
Reply numerically in %, unit not repeated.

Recall the reported Activity of Cc1ccc(-c2nnn(CCCN3CCOCC3)n2)cc1 when tested on Candida albicans.
99.5

Using Candida albicans as the test system, report measured Activity of Clc1ccccc1-c1nnn(CCCN2CCOCC2)n1 .
98.7

Consider the molecule ClCCCn1nnc(-c2ccccc2Cl)n1 tested on Candida albicans; state its Activity.
98.61

Give Activity for ClCCCn1nnnc1-c1ccccc1Cl tested on Candida albicans.
99.9

System Candida albicans. Read-out Activity. Item ClCCCn1nnc(-c2ccccc2)n1 . Report value.
99.99

Please report Activity with Candida albicans for item ClCCCn1nnc(-c2ccc(Cl)cc2)n1 .
99.94

Report its Activity with Candida albicans as the test system: Cc1ccc(-c2nnn(CCCCl)n2)cc1
99.06

Param request: Activity | system Candida albicans | item CCOC(=O)CCn1nnnc1-c1ccccc1
99.37

Quote Candida albicans Activity for entry CCOC(=O)CCn1nnc(-c2ccccc2Cl)n1 .
99.86

Under Candida albicans: report Activity of CCOC(=O)CCn1nnnc1-c1ccc(C)cc1 .
99.59

Please report Activity with Candida albicans for item ClCCCn1nnnc1-c1ccccc1 .
99.45

Output reported Activity of the molecule Clc1ccc(-c2nnn(CCCN3CCOCC3)n2)cc1 on Candida albicans.
100

Fill in Activity for CCOC(=O)CCn1nnc(-c2ccc(Cl)cc2)n1 tested with Candida albicans.
99.88

Identify measured Activity obtained with Candida albicans for CCOC(=O)CCn1nnc(-c2ccc(C)cc2)n1 .
99.51

Give the observed Activity of c1ccc(-c2nnn(CCCN3CCOCC3)n2)cc1 for Candida albicans.
99.93

Name the value of Activity reported for CCOC(=O)CCn1nnc(-c2ccccc2)n1 when tested on Candida albicans.
99.57

State Activity on Candida albicans. Entry: CCOC(=O)CCn1nnnc1-c1ccccc1Cl
99.98

----------
Test system: Candida albicans
assay.info: Antifungal activity against Candida albicans ATCC 90028 at 4 ug/ml after 48 hrs relative to control
Format: functional
Could you please report measured Activity for the items listed next?
Number in %, nothing else.

Specify reported Activity for the compound shown: Clc1ccccc1-c1nnn(CCCN2CCOCC2)n1
98.91

Specify reported Activity for the compound shown: ClCCCn1nnc(-c2ccccc2Cl)n1
98.5

// Input: Cc1ccc(-c2nnn(CCCCl)n2)cc1 . Output its Activity only.
98.84

Input CCOC(=O)CCn1nnc(-c2ccc(Cl)cc2)n1 , output reported Activity.
99.07

Please indicate Activity recorded for CCOC(=O)CCn1nnnc1-c1ccccc1Cl
99.25

Fill in reported Activity for this entry: ClCCCn1nnc(-c2ccccc2)n1
99.29

Input ClCCCn1nnc(-c2ccc(Cl)cc2)n1 , output reported Activity.
98.93

Provide only the value of recorded Activity for CCOC(=O)CCn1nnc(-c2ccc(C)cc2)n1
98.95

Provide one value: measured Activity of ClCCCn1nnnc1-c1ccccc1Cl
99.41

Respond only with Activity recorded for Cc1ccc(-c2nnn(CCCN3CCOCC3)n2)cc1
99.45

Using known records, supply Activity for Clc1ccc(-c2nnn(CCCN3CCOCC3)n2)cc1
98.97

State its Activity: CCOC(=O)CCn1nnnc1-c1ccccc1
98.91

Write down Activity measured for item ClCCCn1nnnc1-c1ccccc1
98.9

Name the recorded Activity of the item CCOC(=O)CCn1nnnc1-c1ccc(C)cc1 in your answer.
99.01

Provide measured Activity value, entry: CCOC(=O)CCn1nnc(-c2ccccc2)n1
99.68

Report measured Activity; entry is c1ccc(-c2nnn(CCCN3CCOCC3)n2)cc1
99.15

Report Activity for CCOC(=O)CCn1nnc(-c2ccccc2Cl)n1
99.05
